Experiment: NCI Yeast Anticancer Drug Screen. Data for the wt1 strain (AID 149);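 further: 0% = growth of vehicle-treated wt1 cultures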
Details: S. cerevisiae wt1 strain (SPY 50644) growth inhibition; at 11.0 µM; stronger effect = higher value
This is part of a sample that, as a whole, favours compounds with a hit. Of some 79,000 tested, about 15% had one in any assay.
Entries and their measured growth inhibition follow.
Numeric only. Scale: %

Study these solved cases before continuing.
compound: CCOC(=O)c1cc([N+](=O)[O-])c(Sc2ncnc3nc[nH]c23)c([N+](=O)[O-])c1
unit-text: %
observed-measurement: -6
//
compound: COc1cc(/C=C2\CCC/C(=C\c3ccc(O)c(OC)c3)C2=O)ccc1O
unit-text: %
observed-measurement: 15
//
compound: O=[N+]([O-])c1ccc(N/N=C/Cc2ccccc2)c([N+](=O)[O-])c1
unit-text: %
observed-measurement: -3
//
compound: CCOC1Oc2ccccc2-c2nc(N)ncc21 (centres undefined)
unit-text: %
observed-measurement: 1
//
compound: CC1=CC(=C(c2ccc(N)cc2)c2ccc(N)cc2)C=CC1=N
unit-text: %
observed-measurement: 7
//
compound: CN(C)CCNc1ccc2ncnc3c2c1C(=O)c1ccccc1-3
unit-text: %
observed-measurement: 15
//
compound: Cc1sc2ccc3ccccc3c2[n+]1C
unit-text: %
observed-measurement: -24
//
compound: O=C(NO)Nc1cc(Cl)cc(Cl)c1
unit-text: %
observed-measurement: 80

Entry under review: Nc1n[n+]([O-])c2ccc(Cl)cc2[n+]1[O-] . Reported growth inhibition?
31
